Molecular target: GST-Nv-NF-kB (Cys allele) (Nematostella vectensis, UniProt E5G601 2-411)
Sequence: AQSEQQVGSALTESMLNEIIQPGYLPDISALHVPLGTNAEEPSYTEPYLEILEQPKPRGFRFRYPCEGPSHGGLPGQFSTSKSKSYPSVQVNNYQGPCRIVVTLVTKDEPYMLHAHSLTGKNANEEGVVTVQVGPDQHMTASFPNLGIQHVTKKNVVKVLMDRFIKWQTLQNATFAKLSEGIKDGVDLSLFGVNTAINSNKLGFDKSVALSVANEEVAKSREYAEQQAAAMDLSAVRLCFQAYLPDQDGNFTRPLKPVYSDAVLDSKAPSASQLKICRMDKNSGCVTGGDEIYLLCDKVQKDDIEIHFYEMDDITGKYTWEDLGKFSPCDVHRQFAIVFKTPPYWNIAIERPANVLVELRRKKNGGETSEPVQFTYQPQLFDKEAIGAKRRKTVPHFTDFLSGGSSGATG
Test: protein-binding microarray (PBM); PBM: ~300 nM protein, 6 mM HEPES pH 7.8, 80 mM KCl, 0.5 mM EDTA, 0.5 mM EGTA, 6% glycerol, 35 ng/ul poly-dIdC, 1% milk, 1 h, room temperature; Ap Aiptasia and Nv Nematostella (sea anemones) / Co Capsaspora / Aq Amphimedon (sponge) / Dm Drosophila / Hu human; RHD is the Rel homology domain; high values mean tight binding
Conditions: dsDNA, one strand shown
One threshold, 6 z-score, splits the recorded binding signal values: lower ones are 1, equal or higher ones are -1.

>>> assigned_class("CCGATTAACATCAAAGGGGCTACTGATGTTAATCGGGTCTTGATTCGCTTGACGCTGCTG")
1
>>> assigned_class("CCGATTAACATCAGGGAGATTTATGATGTTAATCGGGTCTTGATTCGCTTGACGCTGCTG")
1
>>> assigned_class("CCGATTAACATCAGATTCCCCCCTGATGTTAATCGGGTCTTGATTCGCTTGACGCTGCTG")
-1

Input: Does this sequence meet the criterion binding signal < 6 z-score? "CCGATTAACATCAGGGAACCACCTGATGTTAATCGGGTCTTGATTCGCTTGACGCTGCTG"
Output: 1

Input: Does this sequence meet the criterion binding signal < 6 z-score? "CCGATTAACATCAGGATTGCCCCTGATGTTAATCGGGTCTTGATTCGCTTGACGCTGCTG"
Output: 1

Input: Does this sequence meet the criterion binding signal < 6 z-score? "CCGATTAACATCAGGAGTTCCCATGATGTTAATCGGGTCTTGATTCGCTTGACGCTGCTG"
Output: 1

Input: Does this sequence meet the criterion binding signal < 6 z-score? "CCGATTAACATCAAATTCCCCCTTGATGTTAATCGGGTCTTGATTCGCTTGACGCTGCTG"
Output: -1

Input: Does this sequence meet the criterion binding signal < 6 z-score? "CCGATTAACATCAGGGGGAGTACTGATGTTAATCGGGTCTTGATTCGCTTGACGCTGCTG"
Output: 1

Cited source: paper PMC5700166
